- Test system: Nucleic Acid
- Assay Method Text: Stabilization of human G-quadruplex F21T assessed as change in melting temperature at 1 uM by FRET assay
- Assay type: nucleic-acid assay
Endpoint: ΔTm (°C)

Examples with their reported ΔTm follow.
CCN(CC)CCNc1ccc2nc(C)n3c4ccc(OC)cc4c(=O)c1c23 4.2
Cc1cc(NCCCCCCCNc2cc(C)nc3cc(N)ccc23)c2ccc(N)cc2n1 11.8

A. COc1cc2c3c(n(C)c(=O)c2cc1OC)-c1cc2c(cc1C3=O)OCO2
B. Cc1ccc2c(ccc(/C=C/c3ccc(O)c4ncccc34)[n+]2C)c1
Task: Just tell me: smaller ΔTm value, A or B ? Please respond with the label that marks your chosen entry.
Result: A

----------
- Tested on: Nucleic Acid
- Assay Method Text: Stabilization of human G-quadruplex F21T assessed as change in melting temperature at 5 uM by FRET assay
- Assay type: nucleic-acid assay
Endpoint: ΔTm (°C)

O=C(Nc1ccc(C2=NCCN2)cc1)c1ccc(C(=O)Nc2ccc(C3=NCCN3)cc2)c([N+](=O)[O-])c1 33.2

1. CCN(CC)Cc1cc2[nH]c3c4ccc(Cl)cc4ncc3c2cc1OC
2. Cc1cc(N)c2ccccc2[n+]1CCCCCCCCCC[n+]1c(C)cc(N)c2ccccc21
Task: 1 or 2 : whose ΔTm is greater? Identify your pick by its label.
Result: 2
(2: 40.7 °C, 1: 25.9 °C)

1. CCN1C=C/C(=C\C=C\c2cc[n+](CC)c3ccccc23)c2ccccc21
2. COc1cc2c3c(n(C)c(=O)c2cc1OC)-c1cc2c(cc1C3=O)OCO2
Task: Given 1 and given 2 , which shows the smaller recorded ΔTm? Pick one and reply with its label.
Result: 2

A. O=C(Nc1ccc(C2=NCCN2)cc1)c1ccc(Cl)c(C(=O)Nc2ccc(C3=NCCN3)cc2)c1
B. Cc1cc(N)c2cc(NC(=O)/C=C/c3ccccc3Cl)ccc2n1
Task: Please choose the item with the lower ΔTm value from this pair: A and B # respond with the chosen item's label
Result: B
(B: 19.7 °C, A: 37.3 °C)

A. COc1cc(Cc2nccc3cc(OC)c(OC)cc23)c(C(C)=O)cc1OC
B. COc1ccc2cc3[n+](cc2c1OC)CCc1cc2c(cc1-3)OCO2
Task: Of the two listed items, A and B , which carries the larger ΔTm figure? // output: label of the selected item
Result: A
(A: 36.7 °C, B: 23.8 °C)

----------
- Test system: Nucleic Acid
- Assay Method Text: Stabilization of DNA duplex hairpin structure assessed as change in melting temperature at 1 uM by FRET assay
- Format: nucleic-acid assay
Endpoint: ΔTm (°C)

Take a look at these entries with their results.
COc1ccc2cc3[n+](cc2c1OC)CCc1cc2c(cc1-3)OCO2 0.3
Cc1cc(N)c2cc(NC(=O)/C=C/c3ccccc3Cl)ccc2n1 0.4

P. Cc1cc2nc3ccc(N(C)C)cc3[s+]c2cc1N
Q. Cc1ccc(NC(=O)Nc2nc3ccccc3s2)cc1NC(=O)Nc1nc2ccccc2s1
R. COc1ccc2c(NCCCCCCNc3c4ccccc4nc4cc(OC)ccc34)c3ccccc3nc2c1
Task: Hey, can you sort those compounds up there by ΔTm, smallest first? Returns: the labels arranged in the requested order.
Result: Q, P, R
(Q: 0.4 °C, P: 1.8 °C, R: 3.9 °C)

P. O=C(Nc1ccc(C2=NCCN2)cc1)c1ccc(Cl)c(C(=O)Nc2ccc(C3=NCCN3)cc2)c1
Q. CCN(CC)CCNc1ccc2nc(C)n3c4ccc(OC)cc4c(=O)c1c23
Task: So which one has the bigger ΔTm here, P or Q ? Mark your answer with the label of the selected entry.
Result: Q
(Q: 2.6 °C, P: 1.4 °C)

----------
- System: Nucleic Acid
- Assay Method Text: Stabilization of human G-quadruplex F21T assessed as change in melting temperature at 1 uM by FRET assay
- Assay type: nucleic-acid assay
Endpoint: ΔTm (°C)

CN(C)c1ccc(Nc2c3ccc(NC(=O)CCN4CCCC4)cc3nc3cc(NC(=O)CCN4CCCC4)ccc23)cc1 29.5
COc1ccc2c(=O)oc3c(OC)cc(CCN(C)C)c4c(=O)oc1c2c34 13.2

I. COc1ccc2c(NCCCCCCNc3c4ccccc4nc4cc(OC)ccc34)c3ccccc3nc2c1
II. O=C(Nc1ccc(C2=NCCN2)cc1)c1ccc(C(=O)Nc2ccc(C3=NCCN3)cc2)c([N+](=O)[O-])c1
III. O=C(Nc1ccc(C2=NCCCN2)cc1)Nc1ccc(C2=NCCCN2)cc1
Task: Reorder: ΔTm, max to min. Please, when replying, give the labels in the order that was requested.
Result: I, III, II
